Answer each item with its documented Test C disease control rating.
- System: Zymoseptoria tritici
- PROTOCOL_DETAILS: Test C: wheat leaf blotch control on wheat seedlings
- Assay type: in vivo
- CONDITION: 250 ppm; wheat seedlings; 100 = 100% disease control, 0 = no control
One number for each entry, in %.

Check out these entries, answers already filled in.
COMPOUND	Test C disease control rating [%]
COc1ccnc(C(=O)N[C@@H](C)C(=O)OC(C)c2cccc(OC3CCC(C)(C)CC3)c2)c1O (stereo partly drawn)	63
COc1ccnc(C(=O)NC(C)C(=O)OC(C)c2ccc(C#C[Si](C)(C)C)cc2)c1O (mixture of isomers)	94

Test C disease control rating in this record for COc1ccnc(C(=O)N[C@@H](C)C(=O)OC(C)c2ccccc2Oc2ccc(F)cc2)c1OC(C)=O (single isomer, unassigned) : 88
